src = patent US20210130452A1

measurement target: T1, human IL-17F (human, UniProt Q96PD4 31-163)
T1 construct: made in Hek293 cells (GenBank AF384857); also called hIL-17F; hIL17F
T1 sequence: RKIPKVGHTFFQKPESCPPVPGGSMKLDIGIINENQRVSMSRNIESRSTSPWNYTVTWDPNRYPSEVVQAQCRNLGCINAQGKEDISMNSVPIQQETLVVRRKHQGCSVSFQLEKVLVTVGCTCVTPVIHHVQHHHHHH
assay procedure: SPR (Biacore) off-rate

[
  {
    "binder": "IL17MS3019 (VHH, variant of IL17MS13E02; Kabat numbering) VHH: EVQLVESGGGLVQPGGSLRLSCAASGRTYDAMGWFRQAPGKEREFVAAISGSGDDTYYADSVKGRFTISKDNSGITMYLQMNSLRPEDTAVYYCATRRGLYYVWDSNDYENWGQGTLVTVSS",
    "result unit": "s⁻¹",
    "koff": 0.0349
  },
  {
    "binder": "IL17MS3036 (VHH, variant of IL17MS13E02; Kabat numbering) VHH: EVQLVESGGGLVQAGGSLRLSCAASGRTYDAMGWLRQAPGKEREFVAAISGSGDDTYYADSVKGRFTISKDNAGITMYLQMNSLKPEDTAVYYCATRRGLYYVWDTNDYENWGQGTQVTVSS",
    "result unit": "s⁻¹",
    "koff": 0.0044
  },
  {
    "binder": "IL17MS3039 (VHH, variant of IL17MS13E02; Kabat numbering) VHH: EVQLVESGGGLVQAGGSLRLSCAASGRTYDAMGWLRQAPGKEREFVAAISGSGDDTYYADSVKGRFTISKDNAGITVYLQMNSLKPEDTAVYYCATRRGLYYVWDSNDYENWGQGTQVTVSS",
    "result unit": "s⁻¹",
    "koff": 0.00515
  },
  {
    "binder": "IL17MS3018 (VHH, basic variant of IL17MS13E02; Kabat numbering; also called IL17MS3018 basic) VHH: EVQLVESGGGLVQPGGSLRLSCAASGRTYDAMGWLRQAPGKEREFVAAISGSGDDTYYADSVKGRFTISKDNSGITMYLQMNSLRPEDTAVYYCATRRGLYYVWDSNDYENWGQGTLVTVSS",
    "result unit": "s⁻¹",
    "koff": 0.00267
  },
  {
    "binder": "IL17MS3020 (VHH, variant of IL17MS13E02; Kabat numbering) VHH: EVQLVESGGGLVQPGGSLRLSCAASGRTYDAMGWLRQAPGKEREFVAAISGSGDDTYYADSVKGRFTISRDNSGITMYLQMNSLRPEDTAVYYCATRRGLYYVWDSNDYENWGQGTLVTVSS",
    "result unit": "s⁻¹",
    "koff": 0.00147
  },
  {
    "binder": "IL17MS3022 (VHH, variant of IL17MS13E02; Kabat numbering) VHH: EVQLVESGGGLVQPGGSLRLSCAASGRTYDAMGWLRQAPGKEREFVAAISGSGDDTYYADSVKGRFTISKDNSGNTMYLQMNSLRPEDTAVYYCATRRGLYYVWDSNDYENWGQGTLVTVSS",
    "result unit": "s⁻¹",
    "koff": 0.0024
  }
]
